System: alkaline protease from shipworm bacterium
METHOD_SUMMARY: Inhibition of alkaline protease: preincubation with inhibitor, then azocasein assay
Type: biochemical, bacterial symbiont of the shipworm Psiloteredo healdi
CONDITIONS_USED: inhibitor 0.1 mM; preincubated 1 hr at 25° C.; assay 42° C., pH 9.0, 0.2M NaCl; 100% = 154 units/ml
Rule: Activity (%) under 90% gives No, otherwise Yes.

Completed entries (count: 5):
Test whether the compound [Cl][Cu][Cl] records Activity (%) of 90% or higher. Yes

Test whether the compound O=S(=O)(F)Cc1ccccc1 [Phenylmethanesulphonyl fluoride] records Activity (%) of 90% or higher. Yes

Test whether the compound NC(=O)CI [Iodoacetamide] records Activity (%) of 90% or higher. Yes

Test whether the compound [Cl][Hg][Cl] records Activity (%) of 90% or higher. No

Test whether the compound Cc1ccc(S(=O)(=O)N[C@@H](Cc2ccccc2)C(=O)CCl)cc1 records Activity (%) of 90% or higher. Yes

Please examine the following record next.
Test whether the compound Cc1ccc(S(=O)(=O)N[C@@H](CCCCN)C(=O)CCl)cc1 records Activity (%) of 90% or higher. No
